Taken from paper PMC12196166.

- ASSAY METHOD TEXT: Pharmacokinetic study after intragastric administration
- Assay type: in vivo
- ASSAY CONTEXT: male, Sprague-Dawley, rat, po, rats, 5 mg/kg as wogonin, plasma, n = 8
MEASURED QUANTITY: Cmax (ng/mL)
Numbers only, in ng/mL.

Record request: Cmax value, item "COc1c(O)cc(O)c2c(=O)cc(-c3ccccc3)oc12"
14.8

###

- ASSAY METHOD TEXT: Pharmacokinetic study after intragastric administration
- Type: in vivo
- ASSAY CONTEXT: male, Sprague-Dawley, rat, po, rats, 5 mg/kg as wogonin, plasma, n = 8, read-out: MRT(0–∞)
MEASURED QUANTITY: MRT inf (h)
Give bare numbers, in h.

For the compound COc1c(O)cc(O)c2c(=O)cc(-c3ccccc3)oc12 [Wogonin] , what MRT inf is on record?
12.5

###

- ASSAY METHOD TEXT: Pharmacokinetic study after intragastric administration
- Type: in vivo
- ASSAY CONTEXT: male, Sprague-Dawley, rat, po, rats, 5 mg/kg as wogonin, plasma, n = 8, read-out: t1/2z (converted)
MEASURED QUANTITY: half-life (h)
Answers are plain numbers, in h.

Can you share its half-life? I mean this molecule: "COc1c(O)cc(O)c2c(=O)cc(-c3ccccc3)oc12"
7.21

###

- ASSAY METHOD TEXT: Pharmacokinetic study after intragastric administration
- Assay type: in vivo
- ASSAY CONTEXT: male, Sprague-Dawley, rat, po, rats, 5 mg/kg as wogonin, plasma, n = 8
MEASURED QUANTITY: AUC(0-inf) (ng·h/mL)
Give bare numbers, in ng·h/mL.

Query: AUC(0-inf); subject: COc1c(O)cc(O)c2c(=O)cc(-c3ccccc3)oc12 [Wogonin]
77
